Test system: 876862-298-R-J1-PDC complex spheroids, viability % test/control
method-notes: Anticancer human tumor 876862-298-R-J1-PDC patient-derived endometrial carcinoma cell line growth inhibition [CLK]; active = viability on the fitted dose curve at most 10% of control; inactive = the rest
assay-setup: second compound 3.16 µM; first compound 0.000949 µM
Pick from active, inactive when you respond.

Q: Hi, do you know how CC(C)CC(NC(=O)C(Cc1ccccc1)NC(=O)c1cnccn1)B(O)O (centres undefined) + CN1CCN(c2cc(C(=O)Nc3cc4cc(-c5cnn(C)c5)ccc4cn3)ccn2)CC1 came out in this test?
Result: active

Q: Hi, do you know how C=CC(=O)Nc1cc(Nc2nccc(-c3cn(C)c4ccccc34)n2)c(OC)cc1N(C)CCN(C)C + CNC(=O)c1ccc(Nc2nc(OC3CCCC3)c3c(-c4ccc5nc(C)oc5c4)c[nH]c3n2)c(OC)c1 came out in this test?
Result: inactive

Q: Hi, do you know how C=CC(=O)Nc1cc(Nc2nccc(-c3cn(C)c4ccccc34)n2)c(OC)cc1N(C)CCN(C)C + CN1CCN(c2cc(C(=O)Nc3cc4cc(-c5cnn(C)c5)ccc4cn3)ccn2)CC1 came out in this test?
Result: active

Q: Hi, do you know how CC(C)CC(NC(=O)C(Cc1ccccc1)NC(=O)c1cnccn1)B(O)O (centres undefined) + CNC(=O)c1ccc(Nc2nc(OC3CCCC3)c3c(-c4ccc5nc(C)oc5c4)c[nH]c3n2)c(OC)c1 came out in this test?
Result: inactive

* * *

System: 876862-298-R-J1-PDC complex spheroids, viability % test/control
method-notes: Anticancer human tumor 876862-298-R-J1-PDC cell line growth inhibition [CLK]; active = viability on the fitted dose curve at most 10% of control; inactive = the rest;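 also: spheroids exposed to drugs for 7 days before readout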
assay-setup: second compound 1 µM; first compound 1 µM
Pick from yes (active), no (inactive) when you respond.

Q: Hi, do you know how CC(Nc1ccc2c(c1)OCCn1cc(N3C(=O)OCC3C(F)F)nc1-2)C(N)=O (centres undefined) + CNC(=O)c1ccc(Nc2nc(OC3CCCC3)c3c(-c4ccc5nc(C)oc5c4)c[nH]c3n2)c(OC)c1 came out in this test?
Result: no

Q: Hi, do you know how C=CC(=O)N1CCN(c2nc(=O)n(-c3c(C)ccnc3C(C)C)c3nc(-c4c(O)cccc4F)c(F)cc23)C(C)C1 (centres undefined) + CN1CCN(c2cc(C(=O)Nc3cc4cc(-c5cnn(C)c5)ccc4cn3)ccn2)CC1 came out in this test?
Result: yes

Q: Hi, do you know how Nc1ccn(C2OC(CO)C(O)C2(F)F)c(=O)n1 (centres undefined) + CNC(=O)c1ccc(Nc2nc(OC3CCCC3)c3c(-c4ccc5nc(C)oc5c4)c[nH]c3n2)c(OC)c1 came out in this test?
Result: yes

Q: Hi, do you know how COc1cccc2c1C(=O)c1c(O)c3c(c(O)c1C2=O)CC(O)(C(=O)CO)CC3OC1CC(N)C(O)C(C)O1 (centres undefined) + CN1CCN(c2cc(C(=O)Nc3cc4cc(-c5cnn(C)c5)ccc4cn3)ccn2)CC1 came out in this test?
Result: yes

Q: Hi, do you know how CC1COCCN1c1cc(C2(S(C)(=N)=O)CC2)nc(-c2ccnc3[nH]ccc23)n1 (centres undefined) + CNC(=O)c1ccc(Nc2nc(OC3CCCC3)c3c(-c4ccc5nc(C)oc5c4)c[nH]c3n2)c(OC)c1 came out in this test?
Result: no

Q: Hi, do you know how Nc1ccccc1NC(=O)c1ccc(CNC(=O)OCc2cccnc2)cc1 + CNC(=O)c1ccc(Nc2nc(OC3CCCC3)c3c(-c4ccc5nc(C)oc5c4)c[nH]c3n2)c(OC)c1 came out in this test?
Result: no

Q: Hi, do you know how C=CC(=O)N1CCN(c2nc(=O)n(-c3c(C)ccnc3C(C)C)c3nc(-c4c(O)cccc4F)c(F)cc23)C(C)C1 (centres undefined) + CNC(=O)c1ccc(Nc2nc(OC3CCCC3)c3c(-c4ccc5nc(C)oc5c4)c[nH]c3n2)c(OC)c1 came out in this test?
Result: no

Q: Hi, do you know how C=C(F)C(=O)N1CCN(c2nc(OCC3CCCN3C)nc3c2CCN(c2cccc4cccc(Cl)c24)C3)CC1CC#N (centres undefined) + CNC(=O)c1ccc(Nc2nc(OC3CCCC3)c3c(-c4ccc5nc(C)oc5c4)c[nH]c3n2)c(OC)c1 came out in this test?
Result: no

Q: Hi, do you know how CCN1CCN(Cc2ccc(Nc3ncc(F)c(-c4cc(F)c5nc(C)n(C(C)C)c5c4)n3)nc2)CC1 + CN1CCN(c2cc(C(=O)Nc3cc4cc(-c5cnn(C)c5)ccc4cn3)ccn2)CC1 came out in this test?
Result: yes

Q: Hi, do you know how CCc1c2c(nc3ccc(O)cc13)-c1cc3c(c(=O)n1C2)COC(=O)[C@]3(O)CC + CN1CCN(c2cc(C(=O)Nc3cc4cc(-c5cnn(C)c5)ccc4cn3)ccn2)CC1 came out in this test?
Result: yes

Q: Hi, do you know how COc1c(OCCCN2CCOCC2)ccc2c3n(c(=NC(=O)c4cnc(N)nc4)nc12)CCN3 + CN1CCN(c2cc(C(=O)Nc3cc4cc(-c5cnn(C)c5)ccc4cn3)ccn2)CC1 came out in this test?
Result: yes

Q: Hi, do you know how COc1ccc([C@@H](O)c2cc(-c3ncnc4cc(N5CCOCC5)ccc34)c(F)cc2Cl)nn1 + CN1CCN(c2cc(C(=O)Nc3cc4cc(-c5cnn(C)c5)ccc4cn3)ccn2)CC1 came out in this test?
Result: yes

Q: Hi, do you know how CCCS(=O)(=O)Nc1ccc(F)c(C(=O)c2c[nH]c3ncc(-c4ccc(Cl)cc4)cc23)c1F + CN1CCN(c2cc(C(=O)Nc3cc4cc(-c5cnn(C)c5)ccc4cn3)ccn2)CC1 came out in this test?
Result: yes

Q: Hi, do you know how O=C(c1cc(Cc2n[nH]c(=O)c3ccccc23)ccc1F)N1CCN(C(=O)C2CC2)CC1 + CN1CCN(c2cc(C(=O)Nc3cc4cc(-c5cnn(C)c5)ccc4cn3)ccn2)CC1 came out in this test?
Result: yes
